# key: entry, value: DC50
Target: WIZ (Homo sapiens, UniProt O95785+Q96SW2)
Construct: expressed in transfected cells
Sequence (O95785 whole entry): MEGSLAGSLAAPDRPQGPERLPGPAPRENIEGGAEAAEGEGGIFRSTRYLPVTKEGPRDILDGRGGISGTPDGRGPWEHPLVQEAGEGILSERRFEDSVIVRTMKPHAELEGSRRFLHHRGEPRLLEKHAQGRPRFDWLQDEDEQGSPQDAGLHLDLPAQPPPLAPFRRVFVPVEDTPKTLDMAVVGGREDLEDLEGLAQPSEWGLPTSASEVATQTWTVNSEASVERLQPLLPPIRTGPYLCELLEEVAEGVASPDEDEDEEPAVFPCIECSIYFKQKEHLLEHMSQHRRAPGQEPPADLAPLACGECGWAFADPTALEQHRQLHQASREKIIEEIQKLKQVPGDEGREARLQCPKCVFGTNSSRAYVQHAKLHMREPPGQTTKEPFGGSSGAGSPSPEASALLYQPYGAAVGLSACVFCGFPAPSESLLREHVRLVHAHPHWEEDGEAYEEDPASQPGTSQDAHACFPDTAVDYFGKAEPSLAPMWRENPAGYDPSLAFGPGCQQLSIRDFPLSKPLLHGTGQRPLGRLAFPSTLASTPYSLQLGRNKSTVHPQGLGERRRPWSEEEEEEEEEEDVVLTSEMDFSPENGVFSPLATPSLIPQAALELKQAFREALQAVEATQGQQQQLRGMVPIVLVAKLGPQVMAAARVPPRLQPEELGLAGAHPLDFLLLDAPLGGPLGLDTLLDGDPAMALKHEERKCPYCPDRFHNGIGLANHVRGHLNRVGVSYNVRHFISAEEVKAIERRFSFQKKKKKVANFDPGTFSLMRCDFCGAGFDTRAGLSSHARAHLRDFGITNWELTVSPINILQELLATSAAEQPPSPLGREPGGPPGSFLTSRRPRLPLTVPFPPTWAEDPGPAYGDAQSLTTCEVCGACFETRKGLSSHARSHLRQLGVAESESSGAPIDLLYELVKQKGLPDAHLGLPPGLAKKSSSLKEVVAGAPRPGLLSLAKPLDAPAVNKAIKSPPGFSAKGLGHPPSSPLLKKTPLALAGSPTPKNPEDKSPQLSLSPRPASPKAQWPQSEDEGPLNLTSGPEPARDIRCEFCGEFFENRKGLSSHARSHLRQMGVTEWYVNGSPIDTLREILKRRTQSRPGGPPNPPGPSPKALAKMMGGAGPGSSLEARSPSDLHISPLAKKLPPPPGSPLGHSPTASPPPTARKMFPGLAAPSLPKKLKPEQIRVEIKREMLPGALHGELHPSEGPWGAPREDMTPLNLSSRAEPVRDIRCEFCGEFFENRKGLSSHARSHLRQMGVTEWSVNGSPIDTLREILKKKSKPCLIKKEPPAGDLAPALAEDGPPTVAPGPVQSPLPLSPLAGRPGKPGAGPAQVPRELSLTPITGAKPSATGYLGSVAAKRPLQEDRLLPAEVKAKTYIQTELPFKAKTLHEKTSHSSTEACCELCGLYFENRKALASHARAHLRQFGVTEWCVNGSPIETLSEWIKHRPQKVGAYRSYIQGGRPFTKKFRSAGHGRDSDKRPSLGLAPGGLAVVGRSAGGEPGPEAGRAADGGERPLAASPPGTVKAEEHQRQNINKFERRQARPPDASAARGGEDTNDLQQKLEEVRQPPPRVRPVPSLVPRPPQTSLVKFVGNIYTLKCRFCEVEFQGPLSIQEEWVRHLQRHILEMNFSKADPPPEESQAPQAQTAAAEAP
Sequence (Q96SW2 whole entry): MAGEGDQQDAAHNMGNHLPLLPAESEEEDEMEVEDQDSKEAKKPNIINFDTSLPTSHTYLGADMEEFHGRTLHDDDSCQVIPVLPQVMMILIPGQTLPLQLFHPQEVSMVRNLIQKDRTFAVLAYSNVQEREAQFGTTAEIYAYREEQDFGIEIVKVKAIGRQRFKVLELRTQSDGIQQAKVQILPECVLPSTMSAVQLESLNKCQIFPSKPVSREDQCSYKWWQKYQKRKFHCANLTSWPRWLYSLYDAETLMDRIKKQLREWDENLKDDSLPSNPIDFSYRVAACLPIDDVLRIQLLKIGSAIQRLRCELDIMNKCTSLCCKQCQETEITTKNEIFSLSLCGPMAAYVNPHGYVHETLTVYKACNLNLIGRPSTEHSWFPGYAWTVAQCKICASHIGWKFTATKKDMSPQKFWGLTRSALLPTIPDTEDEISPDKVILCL
Sequence (Q16531 whole entry partner): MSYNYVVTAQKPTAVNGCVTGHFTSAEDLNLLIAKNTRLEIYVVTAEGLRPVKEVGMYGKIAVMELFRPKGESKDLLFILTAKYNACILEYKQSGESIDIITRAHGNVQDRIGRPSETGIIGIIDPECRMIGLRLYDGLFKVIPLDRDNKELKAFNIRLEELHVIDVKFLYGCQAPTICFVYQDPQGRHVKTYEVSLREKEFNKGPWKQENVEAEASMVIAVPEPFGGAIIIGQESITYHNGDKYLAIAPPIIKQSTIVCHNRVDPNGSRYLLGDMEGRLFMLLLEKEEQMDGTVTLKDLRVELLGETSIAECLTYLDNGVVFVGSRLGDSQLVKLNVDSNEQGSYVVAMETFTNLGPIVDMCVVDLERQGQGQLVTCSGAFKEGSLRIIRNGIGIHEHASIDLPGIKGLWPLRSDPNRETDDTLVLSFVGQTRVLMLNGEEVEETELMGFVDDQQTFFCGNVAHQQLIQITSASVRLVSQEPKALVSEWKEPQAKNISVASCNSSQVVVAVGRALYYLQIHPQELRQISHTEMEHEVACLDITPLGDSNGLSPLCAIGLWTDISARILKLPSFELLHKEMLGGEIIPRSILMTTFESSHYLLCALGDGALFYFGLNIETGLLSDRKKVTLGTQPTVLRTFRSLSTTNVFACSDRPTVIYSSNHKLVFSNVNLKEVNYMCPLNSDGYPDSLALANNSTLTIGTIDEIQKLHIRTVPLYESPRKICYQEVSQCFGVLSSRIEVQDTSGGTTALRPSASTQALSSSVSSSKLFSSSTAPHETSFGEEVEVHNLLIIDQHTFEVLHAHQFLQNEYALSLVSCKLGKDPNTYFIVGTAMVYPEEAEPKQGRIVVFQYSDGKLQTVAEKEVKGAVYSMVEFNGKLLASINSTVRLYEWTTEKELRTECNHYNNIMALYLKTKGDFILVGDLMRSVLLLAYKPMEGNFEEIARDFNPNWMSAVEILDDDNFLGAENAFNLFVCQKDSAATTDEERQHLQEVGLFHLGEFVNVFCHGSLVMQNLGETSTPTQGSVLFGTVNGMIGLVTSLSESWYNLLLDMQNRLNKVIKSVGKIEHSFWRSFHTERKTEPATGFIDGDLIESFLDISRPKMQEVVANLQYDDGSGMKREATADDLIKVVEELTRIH
Assay: Quantification of WIZ protein levels in HiBit tag fusion protein assay (WIZ HiBit assay in 293T cells)
Assay type: cell-based
Details: WIZ HiBit assay in 293T cells; 10-point, 5-fold dilution, highest concentration 25 μM, about 18 hours; read-out: WIZ AC50
Outcome Measure: DC50 (nM)

1. O=C1CCN(c2noc3ccc(CN4CCN5CCOC[C@@H]5C4)cc23)C(=O)N1 61
2. C[C@@H]1CN(CC(=O)N2CCCCC2)CCN1Cc1ccc2onc(N3CCC(=O)NC3=O)c2c1 300
3. O=C1CCN(c2noc3ccc(CC4CCN(CC5CC5)CC4)cc23)C(=O)N1 30
4. CCN1CCC(Cc2ccc3onc(N4CCC(=O)NC4=O)c3c2)CC1 16
5. C[C@@H]1CN(C2CC2)CCN1Cc1ccc2onc(N3CCC(=O)NC3=O)c2c1 538

All values here come from patent US20250276964A1.
